Numbers sourced from PubChem BioAssay AID2060906.

# System: 485176-168-R4-J1-PDC complex spheroid growth;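 note: spheroids exposed to compounds for seven days before readout; luminescence viability expressed relative to DMSO vehicle wells set as 100%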
# Experimental Protocol: Anticancer human tumor 485176-168-R4-J1-PDC patient-derived pancreatic adenocarcinoma cell line growth inhibition [RAS]
# Measurement Setup: second compound 0.0316 µM; first compound 0.0316 µM; stronger effect = lower value
Parameter: viability, T/C (%)

| Compound | Target System | Parameter | Quantitative Result |
| --- | --- | --- | --- |
| NC1c2ccccc2OC12CCN(c1cnc3c(N4CCCc5ncccc54)n[nH]c3n1)CC2 (centres undefined) + C=CC(=O)N1CCN(c2nc(OCC3CCCN3C)nc3c(F)c(-c4nc(N)cc(C)c4C(F)(F)F)c(Cl)cc23)C(C)C1 | 485176-168-R4-J1-PDC complex spheroid growth | viability, T/C | 82.9 |
| CC(=O)OC12COC1CC(O)C1(C)C(=O)C(O)C3=C(C)C(OC(=O)C(O)C(NC(=O)OC(C)(C)C)c4ccccc4)CC(O)(C(OC(=O)c4ccccc4)C21)C3(C)C (centres undefined) + C=CC(=O)N1CCN(c2nc(OCC3CCCN3C)nc3c(F)c(-c4nc(N)cc(C)c4C(F)(F)F)c(Cl)cc23)C(C)C1 | 485176-168-R4-J1-PDC complex spheroid growth | viability, T/C | 15.2 |
| CC(Nc1ccc2c(c1)OCCn1cc(N3C(=O)OCC3C(F)F)nc1-2)C(N)=O (centres undefined) + C=CC(=O)N1CCN(c2nc(OCC3CCCN3C)nc3c(F)c(-c4nc(N)cc(C)c4C(F)(F)F)c(Cl)cc23)C(C)C1 | 485176-168-R4-J1-PDC complex spheroid growth | viability, T/C | 102 |
| CC(=O)OC12COC1CC(O)C1(C)C(=O)C(O)C3=C(C)C(OC(=O)C(O)C(NC(=O)OC(C)(C)C)c4ccccc4)CC(O)(C(OC(=O)c4ccccc4)C21)C3(C)C (centres undefined) + C#Cc1c(F)ccc2cc(O)cc(-c3ncc4c(N5CC6CCC(C5)N6)nc(OCC56CCCN5CC(F)C6)nc4c3F)c12 | 485176-168-R4-J1-PDC complex spheroid growth | viability, T/C | 18.5 |
| CC1(O)CCCC1n1c(=O)c(C(F)F)cc2cnc(NC3CCN(S(C)(=O)=O)CC3)nc21 (centres undefined) + C=CC(=O)N1CCN(c2nc(OCC3CCCN3C)nc3c(F)c(-c4nc(N)cc(C)c4C(F)(F)F)c(Cl)cc23)C(C)C1 | 485176-168-R4-J1-PDC complex spheroid growth | viability, T/C | 91.2 |
| C[C@@H](NC(=O)c1ncnc(N)c1Cl)c1ncc(C(=O)Nc2cc(C(F)(F)F)c(Cl)cn2)s1 + C#Cc1c(F)ccc2cc(O)cc(-c3ncc4c(N5CC6CCC(C5)N6)nc(OCC56CCCN5CC(F)C6)nc4c3F)c12 | 485176-168-R4-J1-PDC complex spheroid growth | viability, T/C | 123 |
| Nc1ccn(C2OC(CO)C(O)C2(F)F)c(=O)n1 (centres undefined) + C#Cc1c(F)ccc2cc(O)cc(-c3ncc4c(N5CC6CCC(C5)N6)nc(OCC56CCCN5CC(F)C6)nc4c3F)c12 | 485176-168-R4-J1-PDC complex spheroid growth | viability, T/C | 15.7 |
| CC(Nc1ccc2c(c1)OCCn1cc(N3C(=O)OCC3C(F)F)nc1-2)C(N)=O (centres undefined) + C#Cc1c(F)ccc2cc(O)cc(-c3ncc4c(N5CC6CCC(C5)N6)nc(OCC56CCCN5CC(F)C6)nc4c3F)c12 | 485176-168-R4-J1-PDC complex spheroid growth | viability, T/C | 97.5 |
| CCC(CC)c1cc(NC2CCC(N)C2)n2nccc2n1 (centres undefined) + C#Cc1c(F)ccc2cc(O)cc(-c3ncc4c(N5CC6CCC(C5)N6)nc(OCC56CCCN5CC(F)C6)nc4c3F)c12 | 485176-168-R4-J1-PDC complex spheroid growth | viability, T/C | 115 |
